# measuredTarget: Nonstructural protein 1 (Influenza A virus, UniProt Q194T2)
# Sequence (Q194T2 whole entry): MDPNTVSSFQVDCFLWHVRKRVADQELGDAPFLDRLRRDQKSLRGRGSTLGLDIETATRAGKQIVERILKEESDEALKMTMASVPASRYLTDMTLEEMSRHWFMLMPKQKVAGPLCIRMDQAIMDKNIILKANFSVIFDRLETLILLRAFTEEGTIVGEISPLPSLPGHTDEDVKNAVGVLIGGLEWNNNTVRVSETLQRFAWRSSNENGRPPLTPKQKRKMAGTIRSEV
# Type: functional, Influenza A virus (A/California/07/2009(H1N1))
Active and inactive are the calls of the source.
measuredParameter: IC50

Q: // returns reported IC50 for input `O=C1C(Nc2ccc(O)cc2)=C/C(=N/S(=O)(=O)c2cccs2)c2ccccc21`
A: 17.9 µM (active)

Q: IC50 for `CCCCNc1c([N+](=O)[O-])ccc2c1=NC1(CCCCC1)[N+]=2[O-]` ?
A: 43.8 µM (active)

Q: Look up IC50: `O=C(NC(=S)NNC(=O)c1ccccc1O)c1ccco1`
A: 8.7 µM (active)

Q: For `Cc1[nH]n(-c2ccccc2)c(=O)c1N=Nc1ccc(F)cc1` , what is its reported IC50?
A: 84.7 µM (active)
